target: UniProt:Q9Y6L6; conditions: chinese hamster, cho, 10 µM
Sequence (Q9Y6L6 whole entry): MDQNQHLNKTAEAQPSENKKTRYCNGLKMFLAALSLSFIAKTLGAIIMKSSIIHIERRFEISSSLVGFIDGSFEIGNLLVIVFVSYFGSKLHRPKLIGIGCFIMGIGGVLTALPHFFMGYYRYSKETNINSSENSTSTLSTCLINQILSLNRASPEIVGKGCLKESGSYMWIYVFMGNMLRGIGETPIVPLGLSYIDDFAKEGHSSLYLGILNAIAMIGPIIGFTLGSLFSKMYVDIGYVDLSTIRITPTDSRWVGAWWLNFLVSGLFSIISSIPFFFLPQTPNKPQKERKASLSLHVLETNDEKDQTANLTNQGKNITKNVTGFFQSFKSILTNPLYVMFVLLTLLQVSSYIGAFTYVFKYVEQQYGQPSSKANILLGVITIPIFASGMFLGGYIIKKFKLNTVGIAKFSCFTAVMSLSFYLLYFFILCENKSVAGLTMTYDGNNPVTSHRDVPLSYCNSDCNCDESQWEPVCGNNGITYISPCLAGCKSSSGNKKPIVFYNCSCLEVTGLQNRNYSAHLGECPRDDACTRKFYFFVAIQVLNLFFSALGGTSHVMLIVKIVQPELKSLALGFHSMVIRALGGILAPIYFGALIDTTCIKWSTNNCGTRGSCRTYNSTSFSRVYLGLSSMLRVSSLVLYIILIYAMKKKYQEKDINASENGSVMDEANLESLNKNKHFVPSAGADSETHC
As shown below, each of these molecules has a reported residual activity value.
Number in %, nothing else.

Study these solved cases before continuing.
{"Molecule": "Cc1occc(=O)c1/C=C/O [2-METHYL-3-HYDROXYETHYLENEPYRAN-4-ONE]", "Assayed Target": "UniProt:Q9Y6L6", "residual activity / %": 96.24}
{"Molecule": "C=C1C[C@H]2O[C@]2(C)CC[C@@H]2[C@@H]1CC2(C)C", "Assayed Target": "UniProt:Q9Y6L6", "residual activity / %": 54.1}

Task: State the recorded residual activity for this entry: CNC(=O)O/N=C/C(C)(C)SC [ALDICARB]
Result: 120.5

Task: Need residual activity, item CC(=O)N[C@@H](Cc1c[nH]c2ccccc12)C(N)=O [ACETYLTRYPTOPHANAMIDE]
Result: 85.16

Task: Look up residual activity: N[C@@H](C(=O)O)[C@@H](O)[C@H](O)[C@H](O)CO [GLUCOSAMINIC ACID]
Result: 63.53

Task: What does the record list as residual activity for CN(C)/N=N/c1[nH]cnc1C(N)=O [DACARBAZINE] ?
Result: 97.65

Task: Any idea what residual activity was measured for OC(Cn1cncn1)(Cn1cncn1)c1ccc(F)cc1F [FLUCONAZOLE] ?
Result: 86.64

Task: What value of measured residual activity is listed for CC(=O)CCCCn1c(=O)c2c(ncn2C)n(C)c1=O [PENTOXIFYLLINE] ?
Result: 77.22

Task: Dear colleague, I am looking for the recorded residual activity of the following molecule: OC[C@H]1O[C@@H](n2cnc3c(NCc4ccco4)ncnc32)[C@H](O)[C@@H]1O [KINETIN RIBOSIDE]
Result: 114.7

Task: Can you share its residual activity? I mean this molecule: CC1(O)CC2C(CC1O)C2(C)C (centres undefined) [3,4-DIHYDROXYCARANE]
Result: 101

Task: Report residual activity for C[C@]12C=CC(=O)C=C1CC[C@H]1[C@@H]3C[C@@H](O)[C@](O)(C(=O)CO)[C@@]3(C)C[C@H](O)[C@@]12F [TRIAMCINOLONE] please.
Result: 70.81

Task: I am curious: what residual activity value has been reported for CC1(C)C=Cc2cc3ccc(=O)oc3cc2O1 [XANTHYLETIN] ?
Result: 75.53

====

Recorded residual activity for the following compounds
Target: Solute carrier organic anion transporter family member 1B3 (Homo sapiens, UniProt Q9NPD5)
Sequence (Q9NPD5 whole entry): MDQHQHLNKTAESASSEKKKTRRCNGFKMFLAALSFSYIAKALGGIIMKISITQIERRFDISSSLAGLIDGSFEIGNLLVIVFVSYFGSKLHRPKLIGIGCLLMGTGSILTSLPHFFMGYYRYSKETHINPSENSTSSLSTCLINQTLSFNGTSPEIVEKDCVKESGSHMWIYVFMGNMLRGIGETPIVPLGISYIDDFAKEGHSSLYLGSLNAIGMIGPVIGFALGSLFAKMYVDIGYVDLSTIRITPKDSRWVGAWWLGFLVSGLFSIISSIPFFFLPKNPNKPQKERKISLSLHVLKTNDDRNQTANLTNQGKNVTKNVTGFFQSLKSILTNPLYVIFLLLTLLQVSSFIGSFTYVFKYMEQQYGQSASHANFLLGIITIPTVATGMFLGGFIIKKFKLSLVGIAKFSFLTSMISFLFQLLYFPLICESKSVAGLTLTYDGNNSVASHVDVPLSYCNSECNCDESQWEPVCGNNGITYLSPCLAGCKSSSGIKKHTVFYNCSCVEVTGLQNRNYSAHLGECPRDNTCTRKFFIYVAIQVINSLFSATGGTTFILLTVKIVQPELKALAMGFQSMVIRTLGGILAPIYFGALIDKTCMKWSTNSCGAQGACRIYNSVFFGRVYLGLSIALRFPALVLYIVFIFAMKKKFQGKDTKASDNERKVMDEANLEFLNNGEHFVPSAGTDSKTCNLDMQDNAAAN
Conditions: chinese hamster, cho, 10 µM
Reply numerically in %, unit not repeated.

Examples with answers:
{"Compound": "Oc1ccc(Cl)c2cccnc12", "Assayed Target": "Solute carrier organic anion transporter family member 1B3 (Homo sapiens, UniProt Q9NPD5)", "Reading Unit": "%", "Readout Number": 93.36}
{"Compound": "O=C1C(CC[S+]([O-])c2ccccc2)C(=O)N(c2ccccc2)N1c1ccccc1 (stereo unspecified)", "Assayed Target": "Solute carrier organic anion transporter family member 1B3 (Homo sapiens, UniProt Q9NPD5)", "Reading Unit": "%", "Readout Number": 43.93}
{"Compound": "Cc1nc2sccn2c(=O)c1CCN1CCC(=C(c2ccc(F)cc2)c2ccc(F)cc2)CC1", "Assayed Target": "Solute carrier organic anion transporter family member 1B3 (Homo sapiens, UniProt Q9NPD5)", "Reading Unit": "%", "Readout Number": 101.7}
{"Compound": "Cc1noc(NS(=O)(=O)c2ccc(N)cc2)c1C", "Assayed Target": "Solute carrier organic anion transporter family member 1B3 (Homo sapiens, UniProt Q9NPD5)", "Reading Unit": "%", "Readout Number": 90.16}
{"Compound": "COc1ccc(CCC(=O)c2c(O)cc(O[C@@H]3O[C@H](CO)[C@@H](O)[C@H](O)[C@H]3O[C@@H]3O[C@@H](C)[C@H](O)[C@@H](O)[C@H]3O)cc2O)cc1O [NEOHESPERIDIN DIHYDROCHALCONE]", "Assayed Target": "Solute carrier organic anion transporter family member 1B3 (Homo sapiens, UniProt Q9NPD5)", "Reading Unit": "%", "Readout Number": 198.2}
{"Compound": "O=C(CCCN1CCC(O)(c2ccc(Cl)cc2)CC1)c1ccc(F)cc1", "Assayed Target": "Solute carrier organic anion transporter family member 1B3 (Homo sapiens, UniProt Q9NPD5)", "Reading Unit": "%", "Readout Number": 111.7}

Task: residual activity lookup needed for c1ccc2c(Cc3c[nH]c4ccccc34)c[nH]c2c1 , thanks.
Result: 110.1

Task: # query: residual activity of entry COc1ccc2c(c1O)-c1c(OC)c(OC)cc3c1[C@H](C2)N(C)CC3
Result: 102.1

====

target: UniProtKB Q9NPD5; settings: chinese hamster, cho, 10 µM
Threshold 80%: residual activity strictly smaller gives fulfilled, otherwise not fulfilled.

{"Compound": "CC(=O)Nc1nnc(S(N)(=O)=O)s1 [ACETAZOLAMIDE]", "Assigned Category": "not fulfilled"}
{"Compound": "CC(=O)N[C@@H]1[C@@H](O)[C@H](O)[C@@H](CO)O[C@H]1O", "Assigned Category": "not fulfilled"}
{"Compound": "CCCCCCCCCCCC1=C(O)C(=O)C=C(O)C1=O", "Assigned Category": "not fulfilled"}
{"Compound": "C[C@H](CCC(=O)O)[C@H]1CC[C@H]2[C@@H]3C(=O)C[C@@H]4CC(=O)CC[C@]4(C)[C@H]3CC(=O)[C@]12C [DEHYDROCHOLIC ACID]", "Assigned Category": "not fulfilled"}
{"Compound": "CC1(C)C(=O)C=C[C@@]2(C)C1=C(O)C(=O)[C@]1(C)[C@@H]2CC[C@@]2(C)[C@H](c3ccoc3)C[C@H]3O[C@]321", "Assigned Category": "fulfilled"}
{"Compound": "Oc1cc2c(cc1O)[C@@H]1c3ccc(O)c(O)c3OC[C@]1(O)C2", "Assigned Category": "not fulfilled"}
{"Compound": "CCc1ccc2c(O)c3c(cc2c1C(=O)OC)C(=O)c1c(O)ccc(O)c1C3=O [BISANHYDRORUTILANTINONE]", "Assigned Category": "not fulfilled"}

Next:
Task: Take the compound C1N2CN3CN1CN(C2)C3 and say whether its residual activity is less than 80%.
Result: fulfilled

====

Readings of residual activity for the listed compounds
biological target: Solute carrier organic anion transporter family member 1B3 (Homo sapiens, UniProt Q9NPD5); conditions: chinese hamster, cho, 10 µM
Write down the numeric answer in % and omit the unit.

{"Compound": "CCn1cc(C(=O)O)c(=O)c2cnc(N3CCNCC3)nc21", "residual activity [%]": 131.1}
{"Compound": "N=C(N)N", "residual activity [%]": 100}
{"Compound": "C=C1C(=O)O[C@@H]2C3O[C@]3(C)CC/C=C(\\C)CC[C@@H]12 (stereo not given in full)", "residual activity [%]": 114.2}
{"Compound": "CC(C)[C@@H]1CC[C@@H](C)C[C@H]1OC(=O)c1ccccc1 [MENTHYL BENZOATE]", "residual activity [%]": 101.1}
{"Compound": "CC(C)/C(O)=C1/C(=O)O[C@@H](c2ccoc2)[C@]2(C)C(O)[C@@H](O)[C@@]34OC5(C)OC67CC(C)(C(O)[C@]6(O)[C@@H](O)[C@]3(O5)C12)[C@H](CC(=O)O)[C@]74C (stereo not given in full) [HYDROLYSIS PRODUCT OF BUSSEIN]", "residual activity [%]": 78.08}
{"Compound": "CCN1C[C@]2(COC)[C@H](O)C[C@H](OC)[C@@]34[C@@H]5C[C@@]6(O)[C@H](OC(=O)c7ccccc7)[C@@H]5[C@@](OC(C)=O)([C@@H]([C@H](OC)[C@H]23)[C@@H]14)[C@@H](O)[C@@H]6OC", "residual activity [%]": 85.31}
{"Compound": "Cc1ccc(-c2nc3ccc(C)cn3c2CC(=O)N(C)C)cc1", "residual activity [%]": 78.05}
{"Compound": "O=C1CCC[C@@H]2[C@H]3C[C@@H](CN12)[C@@H]1CCCCN1C3.[O-][Cl+3]([O-])([O-])O", "residual activity [%]": 104.5}

Task: Give the reported residual activity for Cc1ccc(N(CC2=NCCN2)c2cccc(O)c2)cc1.Cl [PHENTOLAMINE HYDROCHLORIDE] (system: Solute carrier organic anion transporter family member 1B3 (Homo sapiens, UniProt Q9NPD5)).
Result: 86.01

Task: Record lookup: for Solute carrier organic anion transporter family member 1B3 (Homo sapiens, UniProt Q9NPD5), what residual activity belongs to CC(C)=CCc1c2c(c3occ(-c4ccc(O)c(O)c4)c(=O)c3c1O)C=CC(C)(C)O2 ?
Result: 87.87

Task: Query residual activity on Solute carrier organic anion transporter family member 1B3 (Homo sapiens, UniProt Q9NPD5) for CNC(=O)N(C)c1nnc(C(C)(C)C)s1
Result: 111.4

Task: Which residual activity is reported with Solute carrier organic anion transporter family member 1B3 (Homo sapiens, UniProt Q9NPD5) for this entry: CC1=CC(=O)C(C(C)C)=CC1=O ?
Result: 98.24

Task: Any idea what residual activity came out for O=C(O)CN(CCN(CC(=O)O)CC(=O)O)CC(=O)O on Solute carrier organic anion transporter family member 1B3 (Homo sapiens, UniProt Q9NPD5)?
Result: 82.24

Task: Can you look up residual activity on Solute carrier organic anion transporter family member 1B3 (Homo sapiens, UniProt Q9NPD5) for CCN(CC)CCOC(=O)C(Cc1cccc2ccccc12)CC1CCCO1.O=C(O)C(=O)O (stereo not given) [NAFRONYL OXALATE] ?
Result: 116.5
